All values here come from PubChem BioAssay AID1345085.

Test system: SKOV3
Test: Confirmatory qHTS for gynecologic anti-cancer compounds from libraries of approved drugs and bioactive compounds; also: nearly all actives have a fitted effect of over 55% in size; also: potency is read from the fitted curve at half-maximal effect
Settings: gynecologic cancer cell panel viability, ATPlite luminescence, 48 h; series mostly up to 57.6 µM
Inconclusive results are not listed. The source made the active and inactive calls. Calls follow the shape of the dose curve; as a rule, active = well fitted cell-killing curve with a large enough effect; inconclusive = small, poorly fitted or top-dose-only effect, or effect the other way; inactive = no such curve, though single readings can be large or run the other way.
endpoint.label: Potency

// worked examples, Potency included
>>> measured("OCCNC1CCCc2c1[nH]c1ccc(-c3ccccc3)cc21 (stereo not given)")
"30.6 µM (active)"
>>> measured("CN1CCN(c2cccc(Nc3nc4c(-c5ccc(S(C)(=O)=O)cc5)cccn4n3)c2)CC1")
"inactive"
>>> measured("Cc1cc(C(=O)N2CCN(c3cccc(Cl)c3)CC2)n(-c2ccccc2)n1")
"0.544 µM (active)"
>>> measured("O=C(CCCCCCNC(=O)c1cnc(N(c2ccccc2)c2ccccc2)nc1)NO")
"12.2 µM (active)"
>>> measured("CCCc1nn(C)c2c(=O)[nH]c(-c3cc(S(=O)(=O)N4CCN(C)CC4)ccc3OCC)nc12")
"inactive"
>>> measured("O=C1Cc2cc(CCN3CCN(c4nsc5ccccc45)CC3)c(Cl)cc2N1")
"inactive"

stdin: Give recorded Potency. Cc1nc(NC(=O)N2CCCC2C(N)=O)sc1-c1ccnc(C(C)(C)C(F)(F)F)c1 (stereo not given)
stdout: 0.685 µM (active)

stdin: Name the recorded Potency of the item `Cc1cc(CN2CCN(c3c(Br)cnc4nc(-c5ccc(N6CCN(C)CC6)cc5)[nH]c34)CC2)no1` in your answer.
stdout: 34.3 µM (active)

stdin: For `COc1ccc(CCC(=O)c2c(O)cc(O[C@@H]3O[C@H](CO)[C@@H](O)[C@H](O)[C@H]3O[C@@H]3O[C@@H](C)[C@H](O)[C@@H](O)[C@H]3O)cc2O)cc1O` , write its Potency.
stdout: inactive

stdin: Give Potency for `CCCC(=O)O[C@]1(C(=O)CCl)[C@@H](C)C[C@H]2[C@@H]3CCC4=CC(=O)C=C[C@]4(C)[C@@]3(F)C(=O)C[C@@]21C`
stdout: inactive

stdin: // Input: CCCCN(CCCC)CC(O)c1cc(Cl)cc2c1-c1ccc(Cl)cc1/C2=C/c1ccc(Cl)cc1 (stereo not given) . Output its Potency only.
stdout: inactive

stdin: State its Potency for this compound: `CC(=O)Nc1cccc(-n2c(=O)n(C3CC3)c(=O)c3c(Nc4ccc(I)cc4F)n(C)c(=O)c(C)c32)c1`
stdout: 0.306 µM (active)

stdin: Please list Potency recorded for the compound `COc1ccc(OC)c(-c2nnc3ccc(-c4ccc(OC)c(O[C@@H]5CCOC5)c4)nn23)c1`
stdout: inactive

stdin: Return reported Potency. Input compound: `Oc1cn2c(n1)Nc1ccc(Cl)c(Cl)c1C2`
stdout: inactive

stdin: Give me measured Potency, please, for this compound: `CNC(=O)c1ccccc1Sc1ccc2c(/C=C/c3ccccn3)n[nH]c2c1`
stdout: 19.3 µM (active)

stdin: Give Potency for the following compound: CN1C2CCC1CC(OC(=O)[C@H](CO)c1ccccc1)C2 (stereo not given in full)
stdout: inactive

----------
Tested on: SKOV3
Assay: Confirmatory qHTS for gynecologic anti-cancer compounds from libraries of approved drugs and bioactive compounds; also: nearly all actives have a fitted effect of over 55% in size
Settings: gynecologic cancer cell panel viability, ATPlite luminescence, 48 h; series mostly up to 57.6 µM
Results filed as inconclusive are left out. Active and inactive are the calls of the source. Calls come from the whole dose curve; as a rule, active = well fitted cell-killing curve with a large enough effect; inconclusive = small, poorly fitted or top-dose-only effect, or effect the other way; inactive = no such curve, though single readings can be large or run the other way.
Your answer must be one of the following: yes (1) (active), no (0) (inactive)

stdin: Lab log entry: `CN1CCN(CCOc2cc(OC3CCOCC3)c3c(Nc4c(Cl)ccc5c4OCO5)ncnc3c2)CC1` — outcome as called in the assay?
stdout: no (0)

stdin: I would be grateful if you could indicate the recorded call for `Cc1c(C)n(Cc2ccc(-c3ccccc3C(=O)O)cc2)c2ccc(C(=O)N[C@@H](C)c3ccc([N+](=O)[O-])cc3)cc12` .
stdout: no (0)

stdin: In this assay, the call recorded for `CN(c1nccc(=O)[nH]1)C1CCN(c2nc3ccccc3n2Cc2ccc(F)cc2)CC1` was what?
stdout: no (0)

stdin: For this molecule, state the assay outcome: `CC(C)n1c(/C=C/[C@@H](O)C[C@@H](O)CC(=O)O)c(-c2ccc(F)cc2)c2ccccc21`
stdout: yes (1)

stdin: Field: outcome | Entry: CC(C)(C(=O)NCC(F)(F)C(F)(F)F)C(=O)NC1C(=O)Nc2ccccc2-c2ccccc21 (stereo not drawn)
stdout: no (0)

stdin: Tell me the recorded outcome of this test for `CC[C@@]1(O)C(=O)OCc2c1cc1n(c2=O)Cc2c-1nc1ccccc1c2/C=N/OC(C)(C)C` .
stdout: yes (1)

stdin: Query: recorded result category for `C=CC(=O)Nc1cc2c(Nc3ccc(F)c(Cl)c3)ncnc2cc1OCCCN1CCOCC1` in this test
stdout: yes (1)

stdin: For this molecule, state the assay outcome: `CC(C)Oc1ccc2c(=O)c(-c3ccccc3)coc2c1`
stdout: yes (1)

stdin: What did this assay record as the result for `CCCCc1oc2ccccc2c1C(=O)c1cc(I)c(OCCN(CC)CC)c(I)c1` ?
stdout: yes (1)

stdin: Hey, what did the test say about `Cc1csc(NC(=O)c2sc3nc4c(c(C(F)(F)F)c3c2N)CCC4)n1` ?
stdout: yes (1)

stdin: Outcome logged for `Nc1ccccc1NC(=O)c1ccc(CNc2nccc(-c3cccnc3)n2)cc1` in this assay:
stdout: yes (1)

stdin: Which outcome was entered for the molecule `O=C(NOCC1CC1)c1ccc(F)c(F)c1Nc1ccc(I)cc1Cl` in this test?
stdout: no (0)

stdin: Which outcome was entered for the molecule `O=C(CCCCCCC(=O)Nc1ccccc1)NO` in this test?
stdout: yes (1)
